Source of measurements: patent US20250034269A1

- MEASURED_ON: T1, dimeric murine LTBR-Fc disulfide-linked homodimer biotinylated (P1AE2655) (mouse; human, UniProt P50284 31-223, biotinylated in vitro)
- T1 construct: also called murine LTBR ECD; not shown: human IgG1 Fc-Fragment
- MEASUREMENT_DESCRIPTION: direct ELISA
Consider the following binders; for each one, report its max. binding (OD).
Answers are plain numbers, in OD.

Dear colleague, could you send me max. binding (OD) for each of the items below? Thanks.
1. P1AF0079 (antibody, human IgG1, kappa, L234A L235A, V domains shown, human IgG1 PG LALA; from transgenic rabbit immunization; also called LTBR (0079)) VH: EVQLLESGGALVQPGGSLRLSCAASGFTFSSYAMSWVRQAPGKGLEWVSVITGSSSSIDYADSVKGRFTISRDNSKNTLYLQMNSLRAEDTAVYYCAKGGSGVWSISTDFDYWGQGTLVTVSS VL: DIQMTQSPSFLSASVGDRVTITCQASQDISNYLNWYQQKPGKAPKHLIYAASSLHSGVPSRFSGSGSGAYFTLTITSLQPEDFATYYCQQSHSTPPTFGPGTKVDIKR
2. P1AE9459 (antibody, human IgG1, kappa, L234A L235A, V domains shown, human IgG1 PG LALA; from transgenic rabbit immunization) VH: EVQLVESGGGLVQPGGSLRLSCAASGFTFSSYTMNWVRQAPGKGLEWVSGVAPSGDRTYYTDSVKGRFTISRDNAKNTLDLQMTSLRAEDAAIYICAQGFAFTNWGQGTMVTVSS VL: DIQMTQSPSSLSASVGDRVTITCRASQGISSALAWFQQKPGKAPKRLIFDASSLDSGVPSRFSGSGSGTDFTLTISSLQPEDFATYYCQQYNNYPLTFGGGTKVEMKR
3. P1AF0064 (antibody, human IgG1, kappa, L234A L235A, V domains shown, human IgG1 PG LALA constant regions; V domains from rat immunization; also called LTBR (0064)) VH: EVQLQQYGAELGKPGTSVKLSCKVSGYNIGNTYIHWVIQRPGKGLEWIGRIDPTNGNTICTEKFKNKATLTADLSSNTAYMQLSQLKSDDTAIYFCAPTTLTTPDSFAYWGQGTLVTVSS VL: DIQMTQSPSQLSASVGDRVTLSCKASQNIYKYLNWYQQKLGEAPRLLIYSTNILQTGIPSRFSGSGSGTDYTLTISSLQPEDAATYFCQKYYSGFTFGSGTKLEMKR
4. P1AE1873 (CBE11) (antibody, human IgG1, kappa, L234A L235A, V domains shown) VH: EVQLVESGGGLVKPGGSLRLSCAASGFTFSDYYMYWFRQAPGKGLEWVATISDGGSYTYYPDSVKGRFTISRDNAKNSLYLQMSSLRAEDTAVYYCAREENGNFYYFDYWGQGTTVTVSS VL: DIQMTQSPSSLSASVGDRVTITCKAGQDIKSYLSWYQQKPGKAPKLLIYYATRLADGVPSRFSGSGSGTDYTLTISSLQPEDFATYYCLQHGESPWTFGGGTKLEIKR

Reply:
1: 0.0971; 2: 3; 3: 3.05; 4: 0.112
